- measured_target: EGFR mutant Del19/T790M (Homo sapiens, UniProt P00533, DEL746-750/T790M)
- Construct: truncated human JAK3, EGFR mutants such as del E746-A750; purchased Carna Biosciences
- Sequence (P00533 with tags, fused parts or gaps DEL746-750/T790M limits assumed): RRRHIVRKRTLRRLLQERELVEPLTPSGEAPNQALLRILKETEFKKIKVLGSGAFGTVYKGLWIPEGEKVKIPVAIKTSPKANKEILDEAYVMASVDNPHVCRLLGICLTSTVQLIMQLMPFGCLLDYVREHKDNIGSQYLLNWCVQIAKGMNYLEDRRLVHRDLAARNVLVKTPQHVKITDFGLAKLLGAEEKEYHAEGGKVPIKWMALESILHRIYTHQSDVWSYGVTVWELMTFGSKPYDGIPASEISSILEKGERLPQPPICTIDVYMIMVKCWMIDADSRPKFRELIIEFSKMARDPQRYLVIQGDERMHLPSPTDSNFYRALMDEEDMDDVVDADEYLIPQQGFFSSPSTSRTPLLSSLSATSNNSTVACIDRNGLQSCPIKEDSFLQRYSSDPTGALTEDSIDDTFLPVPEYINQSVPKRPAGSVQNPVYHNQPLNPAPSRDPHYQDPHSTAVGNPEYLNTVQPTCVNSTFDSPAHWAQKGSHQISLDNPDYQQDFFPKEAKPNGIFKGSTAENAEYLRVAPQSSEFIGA
- assay_details: Kinase inhibition assay, EGFR del E746-A750/T790M
- Assay type: biochemical
- measurement_context: read-out: EGFR mutants Del19/T790M
pIC50: −log10 of the molar value.
Entries and their measured pIC50 follow.

[
  {
    "smiles_code": "C=CC(=O)Nc1cc(Nc2ncc(F)c(-n3cc(CN4CCC4)c(-c4ccoc4)c3)n2)c(OC)cc1N1CCOCC1",
    "measurement_kind": "pIC50",
    "readout_value": "> 7.70"
  },
  {
    "smiles_code": "C=CC(=O)Nc1cc(Nc2nccc(-n3cc(CN4C[C@H](O)[C@H](OC)C4)c(C)n3)n2)c(OC)cc1N1CCOCC1",
    "measurement_kind": "pIC50",
    "readout_value": "> 7.70"
  },
  {
    "smiles_code": "C=CC(=O)Nc1cc(Nc2nccc(-n3cc(CN(C)C)c(C4CC4)n3)n2)c(OC)cc1N1CCOCC1",
    "measurement_kind": "pIC50",
    "readout_value": "> 7.70"
  }
]

Kindly review the next compound as well.
Ask: State its pIC50 for this compound: `C=CC(=O)Nc1cc(Nc2nccc(-n3cc(CN4CC[C@H](N(C)C)C4)cn3)n2)c(OC)cc1N1CCOCC1`
Reply: 6.70 to 7.70
